Source: patent US20240116985A1

Molecular target: full-length beta-Catenin (Uniprot ID P35222) (Homo sapiens)
Construct: 10 nM full-length beta-Catenin (Uniprot ID P35222)
Sequence (P35222 whole entry): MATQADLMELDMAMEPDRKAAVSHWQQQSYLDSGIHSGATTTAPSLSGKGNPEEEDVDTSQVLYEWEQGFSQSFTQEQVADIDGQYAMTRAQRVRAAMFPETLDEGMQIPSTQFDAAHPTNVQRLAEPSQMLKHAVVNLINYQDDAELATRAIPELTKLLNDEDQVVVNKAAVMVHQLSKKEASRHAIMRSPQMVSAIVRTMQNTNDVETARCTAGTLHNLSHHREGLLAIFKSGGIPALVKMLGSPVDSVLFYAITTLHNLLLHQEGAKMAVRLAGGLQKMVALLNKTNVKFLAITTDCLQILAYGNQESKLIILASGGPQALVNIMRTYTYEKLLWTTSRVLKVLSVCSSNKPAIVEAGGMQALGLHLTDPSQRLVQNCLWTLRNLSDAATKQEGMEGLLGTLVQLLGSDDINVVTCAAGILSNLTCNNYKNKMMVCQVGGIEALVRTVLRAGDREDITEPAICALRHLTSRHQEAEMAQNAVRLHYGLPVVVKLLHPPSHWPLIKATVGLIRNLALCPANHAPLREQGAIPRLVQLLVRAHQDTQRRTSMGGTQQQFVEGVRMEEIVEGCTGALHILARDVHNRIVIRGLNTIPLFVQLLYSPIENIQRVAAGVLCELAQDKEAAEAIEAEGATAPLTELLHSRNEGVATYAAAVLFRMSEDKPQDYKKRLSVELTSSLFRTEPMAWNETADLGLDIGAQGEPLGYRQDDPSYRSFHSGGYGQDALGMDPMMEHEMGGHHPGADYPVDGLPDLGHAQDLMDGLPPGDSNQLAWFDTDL
Experiment: Fluorescence polarization IC50 (beta-catenin / 5FAM-TCF4 10-53 competition)
Type: binding
Conditions: fluorescence polarization; read-out: beta-Catenin FP IC50
API: label(entry) gives satisfied if the entry's IC50 is strictly smaller than 200 nM; on equality or larger values it gives not satisfied.

Exercise: Is the reported IC50 for CC(=O)N1CCC[C@]12CC=CCCCC1(CCCC=CCCCOC(=O)N3CC[C@@](C(=O)N[C@@H](Cc4ccsc4)C(=O)N[C@@H](Cc4csc5ccccc45)C(=O)N[C@H](C(N)=O)C(C)C)(C3)NC(=O)[C@H](CC(C)C)NC(=O)[C@H](Cc3ccccc3)NC(=O)[C@H](C)NC(=O)[C@H](CCCCNC(C)C)NC(=O)[C@H](CN(CC(=O)O)CC(F)(F)F)NC(=O)[C@H](CC(=O)O)NC1=O)NC(=O)[C@H](CC(C)(C)C)NC(=O)[C@H](CC(=O)O)NC2=O (some centres unmarked) [I-1763] strictly below 200 nM?
Solution: satisfied

Exercise: Is the reported IC50 for CC[C@H](C)[C@@H]1NC(=O)[C@H](CC(=O)O)NC(=O)[C@]2(CC=CCCCC3(CCCC=CCCCCCC[C@@](C)(C(=O)N[C@@H](Cc4ccccc4)C(=O)N[C@@H](Cc4csc5ccccc45)C(=O)N[C@H](C(N)=O)C(C)C)NC(=O)[C@H](CCC(N)=O)NC(=O)[C@H](Cc4ccccc4)NC(=O)[C@H](C)NC(=O)[C@H](C)NC(=O)[C@H](CCC(=O)O)NC(=O)[C@H](CC(=O)O)NC3=O)NC1=O)CCCN2C(C)=O (some centres unmarked) [I-645] strictly below 200 nM?
Solution: not satisfied

Exercise: Is the reported IC50 for CC(=O)N1CCC[C@]12CC=CCCCC1(CCCC=CCCOC(=O)N3CC[C@@](C(=O)N[C@@H](Cc4ccsc4)C(=O)N[C@@H](Cc4csc5ccccc45)C(=O)N[C@@H](CCC(N)=O)C(N)=O)(C3)NC(=O)[C@H](CC(C)C)NC(=O)[C@H](Cc3ccccc3)NC(=O)[C@H](C)NC(=O)[C@H](C)NC(=O)[C@H](CC(=O)O)NC(=O)[C@H](CC(=O)O)NC1=O)NC(=O)[C@H](CC(C)(C)C)NC(=O)[C@H](CC(=O)O)NC2=O (some centres unmarked) [I-1814] strictly below 200 nM?
Solution: satisfied

Exercise: Is the reported IC50 for CC(=O)N1CCC[C@]12CC=CCCCC1(CCCC=CCCCOC(=O)N3CC[C@@](C(=O)N[C@@H](Cc4ccsc4)C(=O)N[C@@H](Cc4csc5ccccc45)C(=O)N[C@@H](CCC(N)=O)C(N)=O)(C3)NC(=O)[C@H](CC(C)C)NC(=O)C(Cc3cccc(C(=O)Oc4ccccc4)c3)NC(=O)[C@H](C)NC(=O)[C@H](C)NC(=O)[C@H](CN(CC(=O)O)CC(F)(F)F)NC(=O)[C@H](CC(=O)O)NC1=O)NC(=O)[C@H](CC(C)(C)C)NC(=O)[C@H](CC(=O)O)NC2=O (single isomer, unassigned) [I-2150] strictly below 200 nM?
Solution: not satisfied

Exercise: Is the reported IC50 for COC(=O)N1CCC[C@]12CC=CCCCC1(CCCC=CCCCOC(=O)N3CC[C@@](C(=O)N[C@@H](Cc4ccsc4)C(=O)N[C@@H](Cc4csc5ccccc45)C(=O)N[C@@H](Cc4c[nH]cn4)C(N)=O)(C3)NC(=O)[C@H](CCC(N)=O)NC(=O)[C@H](Cc3ccccc3)NC(=O)[C@H](C)NC(=O)[C@H](C)NC(=O)[C@H](CC(=O)O)NC(=O)[C@H](CC(=O)O)NC1=O)NC(=O)[C@H](CC(C)(C)C)NC(=O)[C@H](CC(=O)O)NC2=O (some centres unmarked) [I-2362] strictly below 200 nM?
Solution: satisfied
